- Test protocol: yeast display, Sf9 membrane polyspecificity reagent, FACS + sequencing; frameworks hold sequencing errors
Measured parameter: polyreactivity (PSR sort gate)

// solved cases for polyreactivity (PSR sort gate) follow
1) QVQLVESGGGLVQAGGSLRLSCAASGFTFQNYVMGWYRQAPGKERELVAAINSGGRTYYADSVKGRFTISRDNAKNTVYLQMNSLKPEDTAVYYCNAVQPATYKYRSHVIEYDYWGQGTQVTVSS high polyreactivity
2) QVQLVESGGGLVQAGGSLRLSCAASGRIFYGYTMGWYIQAPGKERELVAAISKHAGSTYYSDSVKGRFTISRDNAKNTVYLQMNSLKPEDTAVYYCAKDSSVQAYYGYWYTSTDDYWGQGTQVTVSS low polyreactivity
3) QFQLVESGGGLVQAGGSLRLSCASYGFTFEYNAMGGYRQSPGKESEFVATISWSGGSTYYADSVKGRFTFSRDKAKNTVYLQMNSLKPEDTAVYYCNAEVFFPSTYGMDYWGQGTQVTVSS low polyreactivity
4) QVQLVESGGGLVQAGGSLRLSCAASGFTFYRYAMGWYRQAPGKERELVAAISSGGRTTYADSVKGRFTISRDNAKNTVYLQMNSLKPEDTAVYYCVFVYVYDYYYWGQGTQVTVSS high polyreactivity

Note to self: polyreactivity (PSR sort gate) recorded for QVQLVESGGGLVQAGGSLRLSCAASGRILYRNAMGWYRQAPGKERELVAAITTRGTSTYYADSVKGRFTISRDNAKNTVYLQMNSLKPEDTAVYYCAADSWFSYRGPLYYWGQGTQVTVSS was high polyreactivity

---

- Test protocol: yeast display, Sf9 membrane polyspecificity reagent, FACS + sequencing; frameworks hold sequencing errors
Measured parameter: polyreactivity (PSR sort gate)

Examples from the recorded data:
1) QVHLVESGGGLVQAGGSLRLSCAASGRTLVPNAMGWYRQAPGKERELVAAISRSGGSTYYADSLKGRFTISRDNAKNTVYLQMNSLKPEDTAVYYCAKDKRIFYRVGSDYWGQGTQVTVSS low polyreactivity
2) QVQLVESGGGLVQAGGSLRLSCAASGLIIWLYTMGWYRQAPGKERELVAAIDWSGGSTYYADSVKGRFTISRDNAKNTVYLQMNSLKPEYTAVYYCAADPEPSYRFDYWGQGTQVTVSS low polyreactivity
3) QVQLVESGGGLVQAGGSLRLSCAPSGSIFSYYDMGGYRQAPGKERELVAGISRGGSTNYADSVKGRFTISRDNAKNTVYLQMNSLKPEDTAVYYCNADQSSRTFPFRLSRRSWLYGYWGQGSQVTVSS low polyreactivity
4) QVQLVESGGGLVQAGGSLRLSCAASGRIFRGNAMGWSRQAPGKERELVAGISVRGGRTYYADSVKGRFTISRDNAKNTVYLQMNSLKPEDTAVYYCAAVFWDDYGKYYYWGQGTQVTVSS high polyreactivity
5) QVQLVESGGGLVQAGGSLRLSCAASGSIFRPSAMGWYRQAPGKERELVAAIRWSTGNTYYADSVKGRFTISRDNAKNTVYLQMNSLKPEDTAVYYCAAAYWPVVWFYYWGQGTQVTVSS low polyreactivity
6) QVQLVESGGGLVQAGGSLRLSCAASGFTFRWYTMGWYRQAPGKERELVASIRYGGGSTYYADSVKGRFTISRDNAKNTVYLQMNSLNPEDTAVYYCAAESAWTSPYDYWGQGTQVTVSS high polyreactivity
7) QVQIVESGGGLVQAGGSLRLSCAASGFIFVFNAMGWYRQAPGKERELVAAINGGDITNYADSVKGRFTISRDNAKNTVYLQMNSLKPEDTAVYYCAADGEDSLWTGYDYDYWGQGNQVTVSS low polyreactivity
8) QVQHEESGGGLVQAGGSLRLSCAASGFTFFSNAMGWFRQAPGKERELVAAITTNGGSTYYADSVKGRFTISRDNAKNTVYLQMYSLKPEDTAGYYCAAEYGITDYDYWGQGTQVTVSS low polyreactivity

Quick batch: polyreactivity (PSR sort gate) for everything below.
1. QVQLVESGGGLVQAGGSLRLSCAPSGSIFYVYARGWYRQAPGKERQLVATIPRVGRTYYADSVKGRFTISRDNAKNTVYLQRNSLKPEDTAVYYCATRYGGRSYKYDYWGQGTQVTVSS
2. QVQLVESGGGLVQAGGSLRLSCTASGNTFALYAMGWYRQAPGKERELVARISRRGGSTYYADSVKGRFTISRDNAKNTVYLQMNSLKPEDTAVYYCAKTHSYYPWEVNYWGQGTQVTVSS
3. QVQLVESAGGLVQAGGSLRLSCAASGITFYEYVMGWYRQAPGKERELVASIDWSGGGTYYADSVKGRFTISRDNAKNTVYLQMNSLKPEDTAVYYCNADYFDYSRPRYDYWGQGTQVTVSS

Completion:
["high polyreactivity", "high polyreactivity", "low polyreactivity"]

---

- Test protocol: yeast display, Sf9 membrane polyspecificity reagent, FACS + sequencing; frameworks hold sequencing errors
Measured parameter: polyreactivity (PSR sort gate)

1. QVQLVESGGGLVQAGGSLRLSCAASGRIFVGYAMGWYRQAPGKERELVAAISARGGSTYYADSVMGRFTISRDNAKNTVYLQMNSLKPEDTADYYCAADEASSRGYYDSDYWGQCTQVTVSS low polyreactivity
2. QVQLVESGGGLVQAGGSLLLSCAASGSTFGSYDMGWYRQAPGKERELVATISTSGSGTYYADSVKGRFTISRDNSKNTVYLQMNSLKPEDTAFYDCAKDPADGRRFRYGYWGQGTQVTVSS low polyreactivity

---

- Test protocol: yeast display, Sf9 membrane polyspecificity reagent, FACS + sequencing; frameworks hold sequencing errors
Measured parameter: polyreactivity (PSR sort gate)

1) QVQLVESGGGLVQAGGSLRLSCAASGRTFAYNAMGWYRQAPGKERELVADITSGGSTYYADSVKGRFTISRDNAKNTVYLQMNRLKPEDTAVYYCAAYPQFWYWDYNYWGQGTQVTVSS high polyreactivity
2) QVQLVESGGGLVQAGGSLRLSCAASGRIFKLYAMGWYRQAPGKERELVAAISTSGGSTYYADSVKGRFTISRDNAKNTVYLQMNSLKPEDTAVFYCAADPLSGYDYWGQGTQVTVSS high polyreactivity
3) QVQLVESGGGLVQAGGSLRLSCAASGRIFKYNAMGWYRQAPGKERELVAAISSSGGSTYYADSVKGRCTISRDNAKNTVYLQMNSLKPEDTAVYYCAARYNSRVYRYDYWGQGTQVTVSS high polyreactivity
4) QVQLVESGGGLVQAGGSLRLSCAASGNTFRGYAMGWSRQAPGKEMELVAAITSGGRTYYADSVKGRFTISRDNAKNTVYLQMNSLKPEDTAVYYCNARQFAGDEWGQGTLVTVSS high polyreactivity
5) QVHLVESGGGLVQAGGSLRVSCAASGSIFPYAMGCYRQAPGKEREFVAAITSGVRTNYADSVKGRFTISRDNAKNNVYLQINSLKPEDTAVYYCAARYFPHYYSKYDYWGPGTQVTVSS low polyreactivity
6) QVQLVESGGGLVQAGGSLRLSCAASGLTLRRYAMGWYRQAPGKEREMVASINSGTSTKYADSVKGRFTISRDNAKNTVYLQMNSLKPEDTAVYYCGAAGYFPTAGSRRAYYYWGQGTQVSVSS high polyreactivity
7) QVQLVESGGGLVQAGGSLRLSCAASGFTFILYTMGWYRQAPGKERELVAAITWRGGNTYYADSVKGRFTISRDNAKNTVYLQMNSLKPEDSAVYYCAAETYYASWEMDYWGQGTQVTVSS high polyreactivity
8) QVQLVESGGGLVQSGGSLRLSCAASGSTFNYYAMGWYRQAPGKERELVAVINKSGGRTNYADSVKGRFTISRDNAKNTVYLQMNSLKPEDTAVYYCNKVTRREGSYGYPSRYEYWGQGTQVTVSS high polyreactivity

Provide reported polyreactivity (PSR sort gate) for each item, in the same order as listed.
1. QVQLVESGGGLVQAGGSLRLSCAASGSTFVPNDMGGYRQAPGKERELVAAISYSGGSTYYADSVKGRFTISRDNAKNTVYLQMNSLKPEDTAVYYCAADKYLGELDYWGQGTQVTVSS
2. QVQLVESGGGLVQAGGSLRLSCAASGSIFSFYTMGWYRQAPGKERELVASSTTYADSVKGRFTISRDNAKNTVYLQMNSLKPEDTAVYYCAVDYNSLRYGPLGYWGQGTQVTVSS
3. QVQLVESGGGLVQAGGSLRLSCAASGLTFHPYDMGWYRQAPGKERELVAAISSRGTSTYYADSVKGRFTISRDNAKNTVYLQMNSLKPEDTAVYYCAARHGPRAEAMYYWGQGSQVTVSS
4. QVQLVESWGGLVQAGGSLRLSCAASGSTISANALGWDRQAPGTEREWVASISRRGGSPYYADSVKGRFTISRDKATNTVYLQMNSLKPEDTAVYYSGAVFRYYARTFDYWGQGTQVSVSS
5. QVQLVESGGGLVQAGGSLRLSCDASGSTFNANAMGWYRQAPWKERVLVAAISWNGGRTYYADSVKGRFTISRDNAKNTVYLQMNSLKPEDTAVYYCALVYTAGRNYYYWGQGTQVTVSS
6. QVQLVESGGGLVQAGGSLRLSCAASGRTFPRYAMGWYRQAPGKERELVAAISRGGGTTYADSVKGRFTISRDNAKNTVYLQMNSLKPEDTAVYYCATRSPYSYPNLYYWGQGTQVTVSS
7. QVQLVESGGGLVQAGGSLRLICAASGSFFSKYAMGWYRQAPGTEREWVAAISWSGTSTYYADSVKGRFTISRDNAKITVYLQLNSLKTEDNAVSYCAASSPRSLSLLGYWGQGTQVTESS
8. QVQLVESGGGLVQAGGSLRLSCAASGFTFGENAMGWYRQAPGKDRELVAAITSGDGTSYADSVKGRFTISRDNAKNTVYLQMNSLKPEDTAVYSCAADVNYYQHRLYYWGLGTQVTVSS

Completion:
low polyreactivity
low polyreactivity
high polyreactivity
high polyreactivity
high polyreactivity
high polyreactivity
low polyreactivity
low polyreactivity

Batch request: polyreactivity (PSR sort gate) for each of the following sequences.
1. QVQLVESGGGLVQAGGSLRLSCAASGSTFYPYAMGWYRQAPGKERELVAAITVSGGSTYYADSVKGRFTISRDNAKNTVYLQMNSLKPEDTAVYYCAVDGDPVFYTTYYYSYYYWGQGTQVTVSS
2. QVQLVESGGGLVQAGGSLRLSSAASGSIFIPYAMGWYRQAPGKERELVAAISSSGSTYYADSVKGRFTISRDNAKNTVYFQMNSLKPEDTAVYYCAAAWHTAYWDGSDTLGGGYWGQGTQVTVSS
3. QVQLVESGGGLVQAGGSLRLSCAASGSTFSFYAMGWYRQAPGKERELVAAIRFSGTSTYADSVKGRFTISRDNAKNTVYLQMNSLKPEDTAVYYCAARRAVFYSQRYYRYDYWGQGTQVTVSS
4. QVHLVESGGGLVQAGGSLRLSCAASGRISWGYAMGWDRQAPGKERELVAVINFNGGRTYYADSVKGRFTISRDNAKNTVYLQMNSLKPEDTAVYYCAADSGYEYDYWGQGTQVTVSS
5. QVQLVESGGGLVQAGGSLRLSCAASGYAMGWYRQAPGKERELGAAITSGGSTNYADSVKGRFTISRDNAKNTVYLQMNSVKPEDTAVYYCAAAYSLYGHRYDYWGQGTQVTVSS

Completion:
1. low polyreactivity
2. low polyreactivity
3. high polyreactivity
4. low polyreactivity
5. low polyreactivity
